# System: SULT
# Measurement description: SULT mediated conversion of 7-hydroxycoumarin to 7-hydroxycoumarin sulfate, liver S9
# Assay type: in vitro ADME, human
# Run conditions: human, pH 7.4; Chinese liver S9

>  <Compound>
O=c1ccc2ccc(O)cc2o1 [7-hydroxycoumarin]

>  <Study system>
SULT

>  <Km at 10 min [µM]>
1.7

$$$$

* * *

# Test system: Caucasian liver microsomes
# Measurement description: Microsomal conversion of estragole by Caucasian liver microsomes (NADPH)
# Assay type: in vitro ADME, human
# Run conditions: formation from estragole; Caucasian; scaled with microsomal protein yield 35 mg/(g tissue)

>  <Compound>
C=CC(O)c1ccc(OC)cc1 (stereo not shown) [1′-Hydroxyestragole]

>  <Study system>
Caucasian liver microsomes

>  <Scaled V max>
2.5 µmol/h/g liver

$$$$
>  <Compound>
COc1ccc(CC2CO2)cc1 (stereo not shown) [Estragole-2′,3′-oxide]

>  <Study system>
Caucasian liver microsomes

>  <Scaled V max>
3.9 µmol/h/g liver

$$$$
>  <Compound>
C=CCc1ccc(O)cc1 [4-Allylphenol]

>  <Study system>
Caucasian liver microsomes

>  <Scaled V max>
1.6 µmol/h/g liver

$$$$
>  <Compound>
COc1ccc(/C=C/CO)cc1 [3′-Hydroxyanethole]

>  <Study system>
Caucasian liver microsomes

>  <Scaled V max>
2.1 µmol/h/g liver

$$$$
